biological target: human tau(pS422) (Homo sapiens, UniProt P10636, S739X); assay: BIAcore kinetic screening and kinetic rates of humanized VH/VL combinations; format: binding; conditions: 25 °C; VH14 or VH20 with VL variants
t/2 diss: recorded values
MEASURED_PARAMETER: t/2 diss (min)

MOLECULE	MEASURE_UNIT	EXPERIMENTAL_RESULT
VH14 with VL40: anti-human tau(pS422) antibody; VH SEQ ID NO: 50, VL SEQ ID NO: 43 (antibody, V domains shown, humanized sequence) VH: QQLVESGGGLVQPGGSLRLSCAASGFSLSSNAINWVRQAPGKGLEWVGYIAVSGNTYYASWAKGRFTISRDNSKNTLYLQMNSLRAEDTAVYYCGKSNIWGPGTLVTVSS VL: DIQMTQSPSSLSASVGDRVTITCRSSQSVRTNRLAWFQQKPGQPPKRLIYSASTLDFGVPSRFSGSGSGTEFTLTISSLQPEDFATYYCLGYFDPSADPVAFGGGTKVEIK	min	4
VH14 with VL33: anti-human tau(pS422) antibody; VH SEQ ID NO: 50, VL SEQ ID NO: 40 (antibody, V domains shown, humanized sequence) VH: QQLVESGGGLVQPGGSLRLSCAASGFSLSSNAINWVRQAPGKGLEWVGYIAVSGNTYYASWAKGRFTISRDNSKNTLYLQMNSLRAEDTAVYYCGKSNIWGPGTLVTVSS VL: AIQMTQSPSSLSASVGDRVTITCRSSQSVRTNRLAWFQQKPGQPPKRLIYSASTLDFGVPSRFSGSGSGTEFTLTISSLQPEDFATYYCLGYFDSSIADIVAFGGGTKVEIK	min	1
